Exercise: for every item that follows, state its recorded pKi.
- system.under.test: D(4) dopamine receptor (Homo sapiens)
- Sequence (P21917 whole entry): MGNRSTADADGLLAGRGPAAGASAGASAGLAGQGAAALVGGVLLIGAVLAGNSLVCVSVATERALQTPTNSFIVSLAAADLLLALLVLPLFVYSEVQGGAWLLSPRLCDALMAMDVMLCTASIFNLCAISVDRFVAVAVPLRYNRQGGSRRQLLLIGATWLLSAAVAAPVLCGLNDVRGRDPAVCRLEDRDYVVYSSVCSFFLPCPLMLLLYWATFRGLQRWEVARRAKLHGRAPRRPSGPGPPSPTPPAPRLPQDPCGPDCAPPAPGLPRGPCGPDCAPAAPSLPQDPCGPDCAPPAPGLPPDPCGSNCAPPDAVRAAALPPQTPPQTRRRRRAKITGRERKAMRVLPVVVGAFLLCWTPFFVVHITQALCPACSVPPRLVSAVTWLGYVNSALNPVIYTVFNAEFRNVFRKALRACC
Convention used: pKi is expressed as -log10 of the molar concentration.

compound O=C1NC(CCN2CCN(c3ccc4ccccc4c3)CC2)c2ccccc21 (configuration not stated) , pKi observed: 8.00

compound Cc1ccnc(N2CCN(CCC3NC(=O)c4ccccc43)CC2)c1 (configuration not stated) , pKi observed: 7.65
